target: UniProt P31389
assay: Antagonist activity at histamine H1 receptor in guinea pig ileum preincubated for 10 mins followed by histamine addition during 30 mins equilibration period with washing every 10 mins
Type: tissue-based
measurementConditions: read-out: pA2 (converted)
Label -1 if Kb falls below 100 nM; label 1 in every other case.

Answered examples (6):
INSERT INTO assay_data (smilesrecord, categorylabel) VALUES
  ('N=C(NCCCCN1CCN(CCCCCCCOc2ccccc2)CC1)NCc1ccccc1', -1),
  ('N=C(N)N(CCCCC1CCN(CCCCCCCOc2ccccc2)CC1)Cc1ccc(C(F)(F)F)cc1', 1),
  ('N=C(NCCCCN1CCN(CCCCCCCOc2ccccc2)CC1)NCc1ccc(C(F)(F)F)cc1', -1),
  ('N=C(N)N(CCCCN1CCN(CCCCN(Cc2ccc(C(F)(F)F)cc2)C(=N)N)CC1)Cc1ccc(C(F)(F)F)cc1', -1),
  ('N#C/N=C(\N)N(CCCCN1CCN(CCCCCCCOc2ccccc2)CC1)Cc1ccccc1', 1),
  ('N=C(N)N(CCCCCCCOc1ccccc1)Cc1ccccc1', 1);

Kindly review the next compound as well.
[ask] Record N=C(N)N(CCCCN1CCC(CCCCCCCOc2ccccc2)CC1)Cc1ccc(C(F)(F)F)cc1 ; criterion: Kb no lower than 100 nM. Met?
[reply] -1

====

target: Histamine H3 receptor (Rattus norvegicus)
Sequence (Q9QYN8 whole entry): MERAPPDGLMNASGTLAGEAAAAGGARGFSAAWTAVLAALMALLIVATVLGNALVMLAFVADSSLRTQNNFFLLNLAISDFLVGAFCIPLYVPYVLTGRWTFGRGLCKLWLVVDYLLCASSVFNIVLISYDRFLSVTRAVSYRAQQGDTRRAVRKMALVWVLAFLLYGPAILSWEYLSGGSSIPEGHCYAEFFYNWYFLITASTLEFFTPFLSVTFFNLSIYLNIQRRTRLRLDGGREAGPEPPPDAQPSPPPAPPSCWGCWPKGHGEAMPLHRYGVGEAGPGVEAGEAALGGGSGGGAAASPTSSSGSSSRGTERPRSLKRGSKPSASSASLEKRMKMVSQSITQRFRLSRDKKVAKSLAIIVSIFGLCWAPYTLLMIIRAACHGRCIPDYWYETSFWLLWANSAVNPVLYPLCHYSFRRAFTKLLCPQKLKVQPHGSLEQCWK
attributeMeasured: Ki (nM)
Report only the number, with the unit nM understood.

[ask] Entry N=C(N)N(CCCCN1CCN(CCCCCCCOc2ccccc2)CC1)Cc1ccccc1 : reported Ki = ?
[reply] 12.6

====

target: Histamine H3 receptor (Homo sapiens)
Sequence (Q9Y5N1 whole entry): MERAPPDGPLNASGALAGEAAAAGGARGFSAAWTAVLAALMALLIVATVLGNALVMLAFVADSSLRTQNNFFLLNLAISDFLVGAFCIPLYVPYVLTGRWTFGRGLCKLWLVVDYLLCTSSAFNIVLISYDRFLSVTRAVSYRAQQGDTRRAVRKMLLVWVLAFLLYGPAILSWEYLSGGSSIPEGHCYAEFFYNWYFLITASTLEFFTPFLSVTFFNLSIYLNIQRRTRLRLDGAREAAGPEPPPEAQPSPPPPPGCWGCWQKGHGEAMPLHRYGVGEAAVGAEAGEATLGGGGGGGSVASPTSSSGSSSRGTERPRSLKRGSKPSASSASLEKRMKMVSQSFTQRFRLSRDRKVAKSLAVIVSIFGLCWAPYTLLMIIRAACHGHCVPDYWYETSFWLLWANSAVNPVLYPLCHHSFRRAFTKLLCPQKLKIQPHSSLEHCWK
assay: Displacement of [3H]-Nalpha-Methylhistamine from recombinant human histamine H3 receptor expressed in HEK293 cells after 1 hr by liquid scintillation counting analysis
attributeMeasured: Ki (nM)
Report only the number, with the unit nM understood.

Example cases with answers are listed next.
INSERT INTO assay_data (smilesrecord, attributemeasured, endpointresult) VALUES
  ('N=C(N)N(CCCCN1CCN(CCCCCCCOc2ccccc2)CC1)Cc1ccc(Cl)cc1', 'Ki', 275),
  ('N=C(N)N(CCCCN1CCN(CCCCCCCOc2ccccc2)CC1)Cc1ccccc1', 'Ki', 158);

Now, please, on to the next molecule.
[ask] Entry N=C(N)N(CCCCN1CCN(CCCCCCCOc2ccccc2)CC1)Cc1ccc([N+](=O)[O-])cc1 : reported Ki = ?
[reply] 145

====

target: Histamine H1 receptor (Cavia porcellus)
Sequence (P31389 whole entry): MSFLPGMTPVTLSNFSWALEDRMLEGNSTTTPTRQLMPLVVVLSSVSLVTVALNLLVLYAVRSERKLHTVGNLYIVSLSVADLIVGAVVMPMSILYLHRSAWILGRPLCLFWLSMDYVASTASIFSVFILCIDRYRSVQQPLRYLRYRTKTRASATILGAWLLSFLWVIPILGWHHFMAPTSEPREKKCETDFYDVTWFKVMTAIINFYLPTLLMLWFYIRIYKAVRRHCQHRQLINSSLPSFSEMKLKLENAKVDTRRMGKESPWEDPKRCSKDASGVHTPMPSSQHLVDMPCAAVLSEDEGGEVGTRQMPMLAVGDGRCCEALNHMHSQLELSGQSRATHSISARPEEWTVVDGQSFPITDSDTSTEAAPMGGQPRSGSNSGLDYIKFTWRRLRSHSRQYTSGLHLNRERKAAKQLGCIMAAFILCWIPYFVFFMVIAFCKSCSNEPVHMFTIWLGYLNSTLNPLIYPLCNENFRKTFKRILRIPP
assay: Antagonist activity at histamine H1 receptor in guinea pig ileum preincubated for 10 mins followed by histamine addition during 30 mins equilibration period with washing every 10 mins
measurementConditions: read-out: pA2 (converted)
attributeMeasured: Kb (nM)
Report only the number, with the unit nM understood.

Example cases with answers are listed next.
INSERT INTO assay_data (smilesrecord, endpointresult) VALUES
  ('N=C(N)N(CCCCN1CCN(CCCCCCCOc2ccccc2)CC1)Cc1ccc(C(F)(F)F)cc1', 347),
  ('N=C(N)N(CCCCN1CCN(CCCCCCCOc2ccccc2)CC1)Cc1ccc(Cl)cc1', 240),
  ('N=C(N)N(CCCCN1CCN(CCCCCCCOc2ccccc2)CC1)Cc1ccc([N+](=O)[O-])cc1', 224);

Now, please, on to the next compound.
[ask] Entry N=C(N)N(CCCCN1CCN(CCCCCCCOc2ccccc2)CC1)Cc1ccccc1 : reported Kb = ?
[reply] 200
